Values were extracted from paper PMC8136437.

- Target Of Assay: HCK-T338H (Homo sapiens, UniProt P08631, T333H)
- Sequence (P08631 22-526 T333H): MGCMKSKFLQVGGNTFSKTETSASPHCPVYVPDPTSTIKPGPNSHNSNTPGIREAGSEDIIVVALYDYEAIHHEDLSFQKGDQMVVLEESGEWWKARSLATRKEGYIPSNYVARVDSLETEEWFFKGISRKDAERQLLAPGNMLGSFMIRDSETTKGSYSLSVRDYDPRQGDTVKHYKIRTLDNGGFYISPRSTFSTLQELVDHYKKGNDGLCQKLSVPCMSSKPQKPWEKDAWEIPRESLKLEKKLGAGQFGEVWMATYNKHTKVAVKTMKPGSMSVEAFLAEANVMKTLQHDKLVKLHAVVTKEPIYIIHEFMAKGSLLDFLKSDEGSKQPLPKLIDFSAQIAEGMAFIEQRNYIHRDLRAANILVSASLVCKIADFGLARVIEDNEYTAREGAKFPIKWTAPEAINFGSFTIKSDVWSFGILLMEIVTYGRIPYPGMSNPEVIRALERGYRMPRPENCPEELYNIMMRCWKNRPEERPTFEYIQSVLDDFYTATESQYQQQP
- Experimental Protocol: HCK activation loop autophosphorylation
- Settings: read-out: IC50, kinase inhibition; TF-1/FLT3-ITD cells expressing HCK-T338H
Measurement Name: IC50

Report IC50 for CN1CCN(C2CCC(n3cc(-c4ccc(Oc5ccccc5)cc4)c4c(N)ncnc43)CC2)CC1 (stereo not shown) please.
~100 nM
